# System: OVCAR-3 ovarian
# assay_name: NCI-60 one-dose screen, 48 h (100 = growth as untreated, 0 = no growth, -100 = all killed)
# cond: 10 µM unless noted
Compounds without any hit were thinned out: in the full panel of roughly 83,000, 20% have a hit.
Assign labels as follows, please: yes for growth below 20%; no for growth equal to or exceeding 20%.

# compound, tested_on, class
measured = [
    ("O=C(CCl)N1CCCc2ccccc21", "OVCAR-3 ovarian", "no"),
]

Prompt line: # strict comparison: is reported growth < 20%? input = O=C(CCCCCCCCC(=O)Nc1cccc(C2=NCCN2)c1)Nc1cccc(C2=NCCN2)c1
Response line: no

Prompt line: # strict comparison: is reported growth < 20%? input = O=C1Nc2ccc(Br)cc2/C1=N\N=C/c1cn(Cc2ccccc2)c2ccccc12
Response line: no

Prompt line: # strict comparison: is reported growth < 20%? input = O=c1[nH]c2ccccc2cc1-c1nc2ccncc2[nH]1
Response line: no

Prompt line: # strict comparison: is reported growth < 20%? input = O=c1c2ccccc2oc2ccc(OCCCCCN3CCCCCC3)cc12
Response line: no

Prompt line: # strict comparison: is reported growth < 20%? input = Nc1cc(N)c(S(=O)(=O)O)cc1N=Nc1cc([N+](=O)[O-])ccc1O
Response line: no

Prompt line: # strict comparison: is reported growth < 20%? input = CC(=O)Oc1c2c(nc3c1c1ccccc1n3Cc1ccccc1)-c1ccccc1C2
Response line: no

Prompt line: # strict comparison: is reported growth < 20%? input = COCCOCCOCc1n(Cc2ccc3ccccc3c2)c2ccccc2[n+]1Cc1ccc2ccccc2c1
Response line: yes

Prompt line: # strict comparison: is reported growth < 20%? input = COc1cc(C2=NN(C(C)=O)C(c3cccc(Nc4ccnc5cc(C(F)(F)F)ccc45)c3)C2)cc(OC)c1OC (stereo not drawn)
Response line: no

Prompt line: # strict comparison: is reported growth < 20%? input = O=C(Nc1ccc2ncnc(Nc3cccc(C(F)(F)F)c3)c2c1)c1cccs1
Response line: no

Prompt line: # strict comparison: is reported growth < 20%? input = C#CCN(CCCOc1ccc(Cl)cc1Cl)CCCSC(=O)CCCCCN1/C(=C\C=C2/CCCC(/C=C/C3=[N+](CCCCCC(=O)[O-])c4ccccc4C3(C)C)=C2Cl)C(C)(C)c2ccccc21
Response line: yes

Prompt line: # strict comparison: is reported growth < 20%? input = CCSc1nc(Cl)c(C#N)c(-c2ccc(F)cc2)n1
Response line: no

Prompt line: # strict comparison: is reported growth < 20%? input = O=Cc1[nH]c(Sc2ccccc2)c2ccccc12
Response line: no

Prompt line: # strict comparison: is reported growth < 20%? input = CN1CCN(CC#CCOC(=O)CNC(=O)[C@]23CCC(C)(C)C[C@H]2C2=CC[C@@H]4[C@@]5(C)CC[C@H](O)C(C)(C)[C@@H]5CC[C@@]4(C)[C@]2(C)CC3)CC1
Response line: no

Prompt line: # strict comparison: is reported growth < 20%? input = CCCCOc1nc2ccc(C)cc2cc1/C=C/C(=O)/C=C/c1ccc2c(c1)OCO2
Response line: no

====

# Test system: SR leukemia
# assay_name: NCI-60 one-dose screen, 48 h (100 = growth as untreated, 0 = no growth, -100 = all killed)
# cond: 10 µM unless noted
About 83,000 compounds went through this panel and 20% of them were active in at least one assay; those are over-represented in the sample as a whole.
attribute_measured: growth (%)
One number for each entry, in %.

Example entries begin here.
# compound, growth, %
measured = [
    ("CCCn1c2cc(OCc3cn(-c4ccc(Cl)cc4)nn3)ccc2c2ccnc(C)c21", -32.4),
    ("N#Cc1c(-c2ccc(Cl)cc2)cc(-c2cc3ccccc3o2)nc1SCC(=O)c1ccc(Cl)cc1", 80.2),
    ("CC(/C=C/c1ccccc1)=N/NC(=O)c1ccncc1", 88.9),
    ("COc1ccc2cc(/C=C3\\N=C(c4cc(OC)c(OC)c(OC)c4)OC3=O)c(OC)nc2c1", 95.8),
    ("Nc1c(C(=O)Nc2cccc3ccccc23)sc2nc3c(cc12)COCC3", 22.4),
]

// each compound listed below needs its growth
1. CC[C@]12C=CCN3CC[C@@]4(c5cc(NC(=O)CCC(=O)O[C@H]6CC[C@H]7[C@@H]8CC[C@H]9CC(=O)CC[C@]9(C)[C@H]8CC[C@]67C)c(OC)cc5N(C)[C@H]4[C@@](O)(C(=O)OC)[C@@H]1OC(C)=O)[C@@H]32
2. CNC(=O)c1cc(Oc2ccc3c(c2)sc2nc(-c4ccc(NC(C)=O)cc4)cn23)ccn1
3. COc1ccc2nc(-c3ccc(Cl)cc3)cc(C(=O)N3N=C(c4ccc(N)cc4)CC3c3ccccc3)c2c1 (stereo not drawn)

Response line:
1: 24.8; 2: 25.7; 3: 25.1

====

# Test system: ACHN renal
# assay_name: NCI-60 one-dose screen, 48 h
# cond: 10 µM unless noted
About 83,000 compounds went through this panel and 20% of them were active in at least one assay; those are over-represented in the sample as a whole. Activity calls are given as the source filed them. How the source made its calls: active means growth percent below 10; inactive means the rest.
Choose the fitting class; nothing outside active, inactive is accepted.

Record excerpt, results attached:
# compound, class
measured = [
    ("C=C1C(=O)O[C@H]2[C@H]1CC/C(COC(=O)/C=C/c1cccnc1)=C\\CC[C@@]1(C)O[C@@H]21", "active"),
    ("O=c1c2ccccc2oc2ccc(OCCCCCN3CCCCCC3)cc12", "inactive"),
    ("CC(=O)[C@@H]1CC[C@]2(C(=O)O)CC[C@]3(C)[C@H](CC[C@@H]4[C@@]5(C)Cc6c([nH]c7ccccc67)C(C)(C)[C@@H]5CC[C@]43C)[C@@H]12", "inactive"),
    ("C=C(C)[C@@H]1CC[C@]2(C(N)=O)CC[C@]3(C)[C@H](CC[C@@H]4[C@@]5(C)CCCNC(C)(C)[C@@H]5CC[C@]43C)[C@@H]12", "inactive"),
    ("O=CN1N=C(c2ccc(Cl)cc2)CC1c1cccc(Nc2ccnc3cc(C(F)(F)F)ccc23)c1 (stereo not drawn)", "inactive"),
]

Prompt line: I'd appreciate the recorded outcome for CO[C@@]12C=C[C@@]34CCC(=O)N3c3ccccc3[C@@H](O1)C4C2 from this test.
Response line: inactive

Prompt line: I'd appreciate the recorded outcome for CCOC(=O)c1c(C)nc2c(c1N)/C(=C/c1ccc[nH]1)C(=O)N2Cc1ccc(C(F)(F)F)cc1 from this test.
Response line: inactive

Prompt line: I'd appreciate the recorded outcome for COc1ccc2c(c1)OC13Oc4cc(OC)ccc4C=C1CCCCC3=C2 from this test.
Response line: inactive

====

# Tested on: HS 578T breast
# assay_name: NCI-60 one-dose screen, 48 h
# cond: 10 µM unless noted
This is part of a sample that, as a whole, favours compounds with a hit. Of some 83,000 tested, about 20% had one in any assay. Activity calls are given as the source filed them. Rule for the calls: active = growth percent below 10; inactive = the rest.
Choose the fitting class; nothing outside T for active, F for inactive is accepted.

# compound, class
records = [
    ("COc1ccc(Cc2nc(C#N)c(N3CCN(c4ccc(F)cc4)CC3)o2)cc1", "F"),
    ("Nc1c(C(=O)Nc2ccccn2)sc2nc3c(cc12)CCCC3", "F"),
    ("OCCNc1nc(NCCO)nc(Nc2ccc(C3=NN(c4ccc(Cl)cc4)C(c4ccc(Cl)cc4)C3)cc2)n1 (stereo not given)", "F"),
    ("COc1ccc2oc(=O)cc(-c3nc4ccc(N)cc4[nH]3)c2c1", "F"),
]

Prompt line: I'd appreciate the recorded outcome for Cc1cnc(SCc2ccc(Cl)cc2Cl)nc1Nc1ccc(Cl)c(Cl)c1 from this test.
Response line: F

Prompt line: I'd appreciate the recorded outcome for Cc1nc2sc(C(=O)Nc3ccccc3Cl)c(N)c2cc1C(C)O (stereo not given) from this test.
Response line: F

Prompt line: I'd appreciate the recorded outcome for Nn1c(SCC(=O)Nc2ccc(Cl)cc2)nnc1-c1cc(F)c(Cl)cc1Cl from this test.
Response line: F

Prompt line: I'd appreciate the recorded outcome for CCCCCCCCCCCCCC1=NCC[N+]1(CCO)Cc1ccccc1 (stereo not given) from this test.
Response line: T

Prompt line: I'd appreciate the recorded outcome for CC(C)C1=C[C@@]23CC[C@H]4[C@](C)(COCCC#N)CCC[C@]4(C)[C@H]2C[C@@H]1[C@@H]1[C@H]3[C@@H](OCCC#N)CC[C@@H]1OCCC#N from this test.
Response line: F

Prompt line: I'd appreciate the recorded outcome for O=C1Nc2ccc(Cl)cc2/C1=N/c1nc(-c2ccc(F)cc2)cs1 from this test.
Response line: F

====

Give measured growth for each item. Keep answers brief.
# Tested on: SK-MEL-5 melanoma
# assay_name: NCI-60 one-dose screen, 48 h (100 = growth as untreated, 0 = no growth, -100 = all killed)
# cond: 10 µM unless noted
Compounds without any hit were thinned out: in the full panel of roughly 83,000, 20% have a hit.
One number for each entry, in %.

# mol, growth [%]
records = [
    ("COc1cc(C2=N/C(=C\\c3cc4ccccc4nc3Oc3ccccc3)C(=O)N2C(=N)N)cc(OC)c1OC", 83.5),
    ("O=C(Nc1nc(-c2ccccc2Cl)cs1)c1cc(-c2ccc(Br)cc2)nc2ccccc12", 27.9),
    ("O=C(Nc1ccc2ncnc(Nc3cccc(C(F)(F)F)c3)c2c1)c1cccs1", 61.1),
    ("O=C1Nc2ccc(Cl)cc2/C1=N/c1nc(-c2ccc(F)cc2)cs1", 41.7),
    ("NS(=O)(=O)c1ccc(-n2nc(-c3ccccc3)ccc2=O)cc1", 109),
]

Now look at this entry.
Prompt line: Fill in: growth of CNC(=O)c1cc(Oc2ccc3c(c2)sc2nc(-c4ccc(NC(C)=O)cc4)cn23)ccn1 is ___
Response line: 31.7

Values compiled from PubChem BioAssay (NCI).
